Origin of the recorded values: patent US20120065231A1

Molecular target: androgen receptor (Homo sapiens, UniProt P10275, DEL75-80/DUP470-473)
Construct: expressed in transfected cells; host or cells: human-derived CHP212 cells, stably transformed with pGL3-TATA-3xARE and pRC/RSV-hAR Kozak
Sequence (P10275 with tags, fused parts or gaps DEL75-80/DUP470-473): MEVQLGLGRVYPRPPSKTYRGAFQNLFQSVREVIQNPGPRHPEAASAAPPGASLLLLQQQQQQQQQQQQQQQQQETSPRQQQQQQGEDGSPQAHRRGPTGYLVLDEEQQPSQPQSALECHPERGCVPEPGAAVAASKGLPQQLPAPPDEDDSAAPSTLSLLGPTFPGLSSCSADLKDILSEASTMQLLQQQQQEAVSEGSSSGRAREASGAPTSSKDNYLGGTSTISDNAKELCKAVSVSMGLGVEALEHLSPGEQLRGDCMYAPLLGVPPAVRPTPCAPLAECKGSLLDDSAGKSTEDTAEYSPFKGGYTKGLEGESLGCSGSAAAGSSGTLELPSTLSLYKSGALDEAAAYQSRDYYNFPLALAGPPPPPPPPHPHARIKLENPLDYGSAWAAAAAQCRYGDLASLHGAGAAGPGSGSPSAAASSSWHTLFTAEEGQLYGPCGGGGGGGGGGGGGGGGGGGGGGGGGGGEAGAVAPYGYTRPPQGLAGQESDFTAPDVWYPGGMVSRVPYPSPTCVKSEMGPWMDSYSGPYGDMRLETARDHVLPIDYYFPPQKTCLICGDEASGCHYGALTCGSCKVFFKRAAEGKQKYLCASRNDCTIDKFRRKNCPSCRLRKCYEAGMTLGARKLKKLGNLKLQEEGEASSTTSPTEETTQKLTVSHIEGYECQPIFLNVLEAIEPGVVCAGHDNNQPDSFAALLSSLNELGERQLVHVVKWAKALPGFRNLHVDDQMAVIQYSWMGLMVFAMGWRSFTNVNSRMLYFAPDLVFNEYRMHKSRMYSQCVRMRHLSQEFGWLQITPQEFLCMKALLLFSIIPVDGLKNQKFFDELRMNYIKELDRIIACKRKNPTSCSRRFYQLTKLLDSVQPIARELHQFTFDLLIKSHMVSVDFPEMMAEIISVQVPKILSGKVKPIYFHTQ
Assay: Androgen receptor agonist activity by reporter gene assay method
Assay type: cell-based
pEC50: −log10 of the molar value.
Please mark Yes if the recorded pEC50 is equal to or greater than 8, and No if it falls below.

| molecule | system_under_test | assigned_label |
| --- | --- | --- |
| CCCN(CC(F)(F)F)c1cc(C(F)(F)F)c(C#N)s1 | androgen receptor (Homo sapiens, UniProt P10275, DEL75-80/DUP470-473) | Yes |
| CCCN(CC(F)(F)F)c1cc(Br)c(C#N)s1 | androgen receptor (Homo sapiens, UniProt P10275, DEL75-80/DUP470-473) | Yes |
| CCCN(CC(F)(F)F)c1cc(C)c(C#N)s1 | androgen receptor (Homo sapiens, UniProt P10275, DEL75-80/DUP470-473) | No |
| CCCN(CC1CC1)c1cc(C#N)c(C(F)(F)F)s1 | androgen receptor (Homo sapiens, UniProt P10275, DEL75-80/DUP470-473) | No |
| N#Cc1sc(N2CCCCC2C(O)C(F)(F)F)cc1C(F)(F)F (stereo not drawn) | androgen receptor (Homo sapiens, UniProt P10275, DEL75-80/DUP470-473) | No |

* * *

Recorded measurements of pEC50, one per entry
Target: androgen receptor (Homo sapiens, UniProt P10275, DEL75-80/DUP470-473)
Construct: expressed in transfected cells; host or cells: human-derived CHP212 cells, stably transformed with pGL3-TATA-3xARE and pRC/RSV-hAR Kozak
Experiment: Androgen receptor agonist activity by reporter gene assay method
Type: cell-based
Conditions: agonist activity; transformed human-derived CHP212 cells with pGL3-TATA-3×ARE luciferase reporter and pRC/RSV-hAR Kozak; 24 hours; read-out: EC50
pEC50: −log10 of the molar value.

| compound | operator | pEC50 |
| --- | --- | --- |
| CCCN(CC(=O)O)c1cc(Br)c(C#N)s1 | < | 5.00 |
| CCCN(CC#N)c1cc(Br)c(C#N)s1 | = | 6.24 |
| N#Cc1sc(N2CCCC2)cc1Br | = | 5.85 |
| CC(O)C1CCCCN1c1cc(Br)c(C#N)s1 (stereo not drawn) | = | 6.25 |
| CCCN(CC1CC1)c1cc(Br)c(C#N)s1 | = | 7.97 |
| CC(C)CN(C)c1cc(Br)c(C#N)s1 | = | 5.92 |

* * *

Target: androgen receptor (Homo sapiens, UniProt P10275, DEL75-80/DUP470-473)
Construct: expressed in transfected cells; host or cells: human-derived CHP212 cells, stably transformed with pGL3-TATA-3xARE and pRC/RSV-hAR Kozak
Experiment: Androgen receptor agonist activity by reporter gene assay method
Format: cell-based
Conditions: agonist activity; transformed human-derived CHP212 cells with pGL3-TATA-3×ARE luciferase reporter and pRC/RSV-hAR Kozak; 24 hours; read-out: EC50
Experimental: After shaking for 10 minutes, the luciferase activity was measured by EnVision 2103 Multilabel Reader (PerkinElmer Co., Ltd.).
# reported EC50; entries follow

| molecule | system_under_test | operator | EC50 (nM) |
| --- | --- | --- | --- |
| CC1CCCCN1c1cc(Br)c(C#N)s1 (stereo not drawn) [Example 9] | androgen receptor (Homo sapiens, UniProt P10275, DEL75-80/DUP470-473) | = | 450 |
| CCCN(CC(=O)NC)c1cc(Br)c(C#N)s1 [Example 25] | androgen receptor (Homo sapiens, UniProt P10275, DEL75-80/DUP470-473) | = | 1500 |
| CCCN(CC1CC1)c1cc(Br)c(C=O)s1 [Example 1] | androgen receptor (Homo sapiens, UniProt P10275, DEL75-80/DUP470-473) | > | 10000 |
| COCCN(CCOC)c1cc(Br)c(C#N)s1 [Example 16] | androgen receptor (Homo sapiens, UniProt P10275, DEL75-80/DUP470-473) | = | 1600 |
| CCCC1CCCCN1c1cc(Br)c(C#N)s1 (stereo not drawn) [Example 18] | androgen receptor (Homo sapiens, UniProt P10275, DEL75-80/DUP470-473) | = | 36.2 |
| CC1CCN(c2cc(Br)c(C#N)s2)CC1 [Example 12] | androgen receptor (Homo sapiens, UniProt P10275, DEL75-80/DUP470-473) | = | 1500 |
